- protocol.description: qHTS of pediatric cancer cell lines to identify multiple opportunities for drug repurposing: Confirmatory screen for OHS-50 cells (AID 1347128);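 further: compound exposure lasted 48 h at 37 degrees C; nearly all actives have a fitted effect of over 55% in size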
- assay.context: OHS-50 osteosarcoma cells viability; series mostly up to 45.9 µM
Records with an inconclusive call do not appear. Active and inactive are the calls of the source. The call rests on the fitted dose curve; in most records, active means well fitted cell-killing curve with a large enough effect; inconclusive means small, poorly fitted or top-dose-only effect, or effect the other way; inactive means no such curve, though single readings can be large or run the other way.
I would appreciate it if you answered using one of these outcomes: active, inactive

Test call for this compound, please: `CCCCCCCCCCC[C@@H](C[C@@H]1OC(=O)[C@H]1CCCCCC)OC(=O)[C@H](CC(C)C)NC=O`
inactive

Test call for this compound, please: `C[C@H]1O[C@@H](O[C@H]2CC[C@@]3(C)[C@H](CC[C@@H]4[C@@H]3C[C@@H](O)[C@]3(C)[C@@H](C5=CC(=O)OC5)CC[C@]43O)C2)C[C@H](O)[C@@H]1O[C@H]1C[C@H](O)[C@H](O[C@H]2C[C@H](O)[C@H](O[C@@H]3O[C@H](CO)[C@@H](O)[C@H](O)[C@H]3O)[C@@H](C)O2)[C@@H](C)O1`
active

Test call for this compound, please: `C[C@@]12C(=O)OC(=O)[C@]1(C)C1CCC2O1`
active

Test call for this compound, please: `CCCCCCCCCCCCOCCOCCOCCOCCOCCOCCOCCOCCOCCO`
inactive

Test call for this compound, please: `COc1ccc(C(=O)c2ccccc2)c(O)c1`
inactive

Test call for this compound, please: `NC(N)=NN=C(/C=C/c1ccc([N+](=O)[O-])o1)/C=C/c1ccc([N+](=O)[O-])o1`
active

Test call for this compound, please: `CCN1/C(=C/C=C/c2sc3ccccc3[n+]2CC)Sc2ccccc21`
active
